I'd be grateful if you could share measured Binding of serum SARS-green to linear peptide (PEPSCAN-ELISA) for these entries.
tested on: antibodies in sera from SARS patients (sera 1a, 1b, 2, 6, 37, 62, London, SARS-yellow, SARS-green); type: binding, human
Numbers only.

Reference set, count: 6
NSRNSTPGSSRGNSP : 0.4
LLLLDRLNQLESKVS : 0.4
GKGQQQQGQTVTKKS : 0.2
SRSRGNSRNSTPGSS : 0.4
SGKGQQQQGQTVTKK : 0.5
GSSRGNSPARMASGG : 0.8

Please look at the items below and tell me Binding of serum SARS-green to linear peptide (PEPSCAN-ELISA) for each one, in order.
1. RSSSRSRGNSRNSTP
2. SKVSGKGQQQQGQTV
3. VTQAFGRRGPEQTQG
4. SGGGETALALLLLDR

[0.2, 0.3, 0.5, 0.1]

====

tested on: antibodies in sera from SARS patients (sera 1a, 1b, 2, 6, 37, 62, London, SARS-yellow, SARS-green); assay type: binding, human
quantity.kind: Binding of serum 2 to looped/cyclic peptides of protein X2 of SARS-CoV Urbani
Answers are plain numbers.

SLTSLLKTHRMCKYT : 0.1
HITMTTVYHITVSQI : 0.3
VVILRIGTQVLKTMS : 0.3
LSLLKVTAFQHQNSK : 0.1
AFQHQNSKKTTKLVV : 0.4
ACLCKHKKVSTNLCT : 0.2
VLKMLHSSSLTSLLK : 0.1
LKTHRMCKYTQSTAL : 0.4

Please look at the items below and tell me Binding of serum 2 to looped/cyclic peptides of protein X2 of SARS-CoV Urbani for each one, in order.
1. LHSSSLTSLLKTHRM
2. SLHKLLQTLVLKMLH
3. LLIQQWIQFMMSRRR
4. QQWIQFMMSRRRLLA
5. HKKVSTNLCTHSFRK
6. THITMTTVYHITVSQ
7. TMTTVYHITVSQIQL

[0.3, 0.4, 0.7, 0.6, 0.8, 0.3, 0.3]

====

system: control sera (pooled serum of ten healthy LUMC hospital workers; commercial negative donor pooled serum from the Dutch bloodbank); format: binding, human
I'd be grateful if you could share measured Binding of Control serum LUMC to looped peptides of the protein X3 of SARS-CoV Urbani for these entries.

WNLDVIISSIVRQLF : 0.7

Please look at the items below and tell me Binding of Control serum LUMC to looped peptides of the protein X3 of SARS-CoV Urbani for each one, in order.
1. DFQVTIAEILIIIMR
2. RTFRIAIWNLDVIIS

1. 0.7
2. 0.8

Please look at the items below and tell me Binding of Control serum LUMC to looped peptides of the protein X3 of SARS-CoV Urbani for each one, in order.
1. FKPLTKKNYSELDDE
2. ILIIIMRTFRIAIWN
3. IISSIVRQLFKPLTK
4. FQVTIAEILIIIMRT
5. NLDVIISSIVRQLFK

0.8
0.3
0.6
0.6
0.8

Please look at the items below and tell me Binding of Control serum LUMC to looped peptides of the protein X3 of SARS-CoV Urbani for each one, in order.
1. MFHLVDFQVTIAEIL
2. RIAIWNLDVIISSIV

1: 1.0; 2: 0.8

Origin of measurements: patent US20070128217A1
